# Target of assay: UniProt P08173
# Sequence (P08173 whole entry): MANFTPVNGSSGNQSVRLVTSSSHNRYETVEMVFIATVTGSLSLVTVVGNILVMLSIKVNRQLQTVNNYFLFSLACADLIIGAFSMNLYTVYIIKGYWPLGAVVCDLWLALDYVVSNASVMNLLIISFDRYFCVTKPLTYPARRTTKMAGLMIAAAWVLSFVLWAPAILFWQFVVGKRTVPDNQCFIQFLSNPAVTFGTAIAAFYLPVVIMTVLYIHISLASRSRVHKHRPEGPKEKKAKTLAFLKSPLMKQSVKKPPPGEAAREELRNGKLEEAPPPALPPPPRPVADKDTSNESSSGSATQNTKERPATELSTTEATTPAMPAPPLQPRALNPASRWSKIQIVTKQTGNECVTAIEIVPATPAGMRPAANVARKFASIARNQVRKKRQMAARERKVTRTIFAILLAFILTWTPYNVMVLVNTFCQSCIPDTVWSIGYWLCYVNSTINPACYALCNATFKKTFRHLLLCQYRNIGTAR
# Method summary: Evaluated for its binding affinity at human muscarinic receptor m4 by the displacement of [3H]NMS binding using membranes from transfected chinese hamster ovarian cell
Property label: IC50 (nM)

> print(dat)
                                   molecule  assay.result
1  CCOC(=O)c1c(C)[nH]c2ccc3c(c12)CN1CCc2cc(C)ccc2C1O3 (stereo unspecified)           465
2  CCOC(=O)c1c(C)[nH]c2ccc3c(c12)CN1CCc2cc(Oc4ccccc4)ccc2C1O3 (stereo unspecified)          2630

1 = CCOC(=O)c1c(C)[nH]c2ccc3c(c12)CN1CCc2ccccc2C1O3 (stereo unspecified)
2 = CCOC(=O)c1c(C)[nH]c2ccc3c(c12)CN1CCc2cc(OCC)ccc2C1O3 (stereo unspecified)
3 = CCOC(=O)c1c(C)[nH]c2ccc3c(c12)CN1CCc2cc(OC)c(OC)cc2C1O3 (stereo unspecified)
4 = COC(=O)c1c(C)[nH]c2ccc3c(c12)CN1CCc2cc(OC)ccc2C1O3 (stereo unspecified)
Endpoint returns the given molecules ordered by ascending IC50. List labels; respect the requested ordering.
3, 4, 2, 1

These entries and their values trace back to ChEMBL document CHEMBL1131391.
